src = paper PMC12136788

- Tgt: T1, UNK ZnF1-6 (called full-length) (human, UniProt Q9C0B0 30-357)
- T1 sequence: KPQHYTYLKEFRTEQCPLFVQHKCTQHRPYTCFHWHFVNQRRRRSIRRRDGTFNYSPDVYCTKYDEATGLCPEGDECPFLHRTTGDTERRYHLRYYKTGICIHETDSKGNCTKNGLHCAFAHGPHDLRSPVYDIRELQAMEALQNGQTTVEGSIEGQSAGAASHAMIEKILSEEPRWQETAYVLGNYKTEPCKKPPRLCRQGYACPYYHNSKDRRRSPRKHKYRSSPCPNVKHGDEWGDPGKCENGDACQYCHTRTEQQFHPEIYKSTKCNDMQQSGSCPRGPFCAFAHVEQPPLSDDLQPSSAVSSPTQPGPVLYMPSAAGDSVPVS
- Method description: nsRBNS (natural sequence RNA bind-n-seq); RBNS binding buffer (assumed for nsRBNS): 25 mM Tris pH 7.5, 150 mM KCl, 3 mM MgCl2, 0.01% Triton X-100, 500 ug/ml BSA, 20 U/ml SUPERase-In, 4 C; UNK is unkempt and MSI1 is Musashi-1; names of the RNAs are library labels; protein concentration not given here; high values mean tight binding
In all, about 5,800 sequences were measured (“enrichment r”: median about 0.68, highest 2% from about 11 on). Shown is part of a subset that was picked to be rich in the highest values.
Mark Y only when binding signal stays strictly below 0.6 enrichment R. Values equal to the cut-off are N.

[[record]]
binder = "ENSG00000112936:stop:overlap|stop_codon|ENSG00000112936|stop_codon|NA|stop_codon (ssRNA) RNA: GGGAGUUCUACAGUCCGACGAUCGAUGCAGAGGGCAGAGCAUCUCUGUCACCAGCAUAAGGCCUUGUGCUGCGGAAACCCAGUAGGCUCCUGGAGGCCCUGGUCAGCUUGCUUGGAAUCCAGCAGGCAGCUGGGGCUGAGUGACAACAGAGGAUUGAGCAUCA"
label_value = "Y"

[[record]]
binder = "chr1:225496770:225496921:-|3pUTR|ENSG00000154380|msi1|FALSE|unique (ssRNA) RNA: GGGAGUUCUACAGUCCGACGAUCUUUUUUAAUUGCAGACAGUAAUGCAUGUCACACUAAUAUGUAGUGGCCUUUUCAAGGCCUAGUCCCAGGGAAAACAUUUUGUAGAGUAUAGGGGAGUGGGAGGAAGGGGAGGAAUAAUUUCAACAGAGGAUUGAGCAUCA"
label_value = "N"

[[record]]
binder = "chr11:130144177:130144243:+|3pUTR|ENSG00000084234|msi1_unk|total|mutant (ssRNA) RNA: GGGAGUUCUACAGUCCGACGAUCAUGAGGGUGUCCGCUGCUGCUUUCCUUCGGAAUCCAGUGCUUCCACAGAGAUCCGCCUGCCGCUUAUAUUUGACAUUCUUCACUGUCUGUUGUUUACCUACCGCCGCUUUUUACCGUUCACAACAGAGGAUUGAGCAUCA"
label_value = "N"

[[record]]
binder = "chr6:149889094:149889339:-|three_prime_utr|ENSG00000164520|control|control|control (ssRNA) RNA: GGGAGUUCUACAGUCCGACGAUCGGCAGCUCCCUUUAAAGGUCAAAAGCCUUCCCUGUGUGGGUGUCAGUGUGUGUGUGCGAUAGAAAAUUUGAUUGACUUCUCCGUGGGCUUCCUGUCUGGAGAGUCAGUGAUGGCUAUAAGCAACAGAGGAUUGAGCAUCA"
label_value = "N"

[[record]]
binder = "ENSG00000142192:stop:overlap|stop_codon|ENSG00000142192|stop_codon|NA|stop_codon (ssRNA) RNA: GGGAGUUCUACAGUCCGACGAUCAGAUGCAGCAGAACGGCUACGAAAAUCCAACCUACAAGUUCUUUGAGCAGAUGCAGAACUAGACCCCCGCCACAGCAGCCUCUGAAGUUGGACAGCAAAACCAUUGCUUCACUACCCAUCCAACAGAGGAUUGAGCAUCA"
label_value = "N"

[[record]]
binder = "chr8:108778973:108784180:-|three_prime_utr|ENSG00000164841|control|control|control (ssRNA) RNA: GGGAGUUCUACAGUCCGACGAUCAAGUUUAUUUCACAAACCAACAGCCAGUAAGUGUUUUUGUUCUCUAUGUGUCUUCUAUUUAGAAGAAAAGCCAUGUAAGAUGUAUAAGAAACCACAACCAGCCACACCUAUCCUUCUGAACAACAGAGGAUUGAGCAUCA"
label_value = "Y"

[[record]]
binder = "ENSG00000124766:be:win_2951|3pUTR|ENSG00000124766|bound_else_gene|NA|bound_elsewhere_windowed (ssRNA) RNA: GGGAGUUCUACAGUCCGACGAUCCUUUAUUCCUUCCUUUUCCUUUUUUUCUUUUUUUUUUCUUUUUUUUUUUUUUUUUUUGGUAGUUGUUGUUACCCACGCCAUUUUACGUCUCCUUCACUGAAGGGCUAGAGUUUUAACUUUCAACAGAGGAUUGAGCAUCA"
label_value = "N"

[[record]]
binder = "chr1:150647640:150647741:-|3pUTR|ENSG00000143457|unk|FALSE|unique (ssRNA) RNA: GGGAGUUCUACAGUCCGACGAUCAGAUUCAAUUACCUGGAUGUCAAAGUCCUAGAGCCAGAAAUAUAUUCUCUCAUCCCUCUUAGCAUUCUCUUGCUCCCUCAUUCACUAGGGCAAAUGUCUAAAUGAAGAAAAGUCUCUCUCCAACAGAGGAUUGAGCAUCA"
label_value = "N"

[[record]]
binder = "chr1:965281:965395:+|3pUTR|ENSG00000187961|unk|FALSE|unique (ssRNA) RNA: GGGAGUUCUACAGUCCGACGAUCCCAUCCGUUCACGUCUCUGCAUCCAUUCCUUCAUGUCUUUAUUUAGUUGUUUAUUUAUUUAGUUAUUUAUCUUAUUUAUUGAGGGGUGAGGAGUGCCACGGCUGCCCGUUUACACCUUUACAACAGAGGAUUGAGCAUCA"
label_value = "N"

[[record]]
binder = "ENSG00000198589:be:win_1801|CDS|ENSG00000198589|bound_else_gene|NA|bound_elsewhere_windowed (ssRNA) RNA: GGGAGUUCUACAGUCCGACGAUCACAGUCAACAUAUAUAACACCAUUCGGAGAGUUGGAACAGUGCUUCUCAUCAUGCACACGCUGAAGUACUACUACUGGGCAGUGAAUCCUCAGGAUCGAAGUGGUAUCACCCCAAAAGGACAACAGAGGAUUGAGCAUCA"
label_value = "Y"

[[record]]
binder = "chr22:31279490:31279591:+|3pUTR|ENSG00000182541|msi1|total|mutant (ssRNA) RNA: GGGAGUUCUACAGUCCGACGAUCAGCAGCUUGGGCUGGGAAGAGGUGGUGGCAGAGUCUCAAAGCUGAGAUGCUGAGAGAGACCGCUCCCUGAGCUGGGCCAUCUGACUUCUACCUCCCAUGUUUGCUCUCCCAACUCAUCCGCAACAGAGGAUUGAGCAUCA"
label_value = "N"

[[record]]
binder = "chr13:45969211:45969312:-|CDS|ENSG00000123200|unk|FALSE|unique (ssRNA) RNA: GGGAGUUCUACAGUCCGACGAUCGUCCCUGACCGUACAGAGGUGACAGAAGCAGAGCAUACUGCCACCGCCACGACUCCUGGUAGUACCCCUUCUCCUCUAUCUUCUCUUCUUCCUCCUCCACCGCCUGUGGCUACUGCCACUCAACAGAGGAUUGAGCAUCA"
label_value = "N"

